System: human Fatty Acid Amide Hydrolase (FAAH) (Homo sapiens (Human), UniProt O00519)
Sequence (O00519 30-579): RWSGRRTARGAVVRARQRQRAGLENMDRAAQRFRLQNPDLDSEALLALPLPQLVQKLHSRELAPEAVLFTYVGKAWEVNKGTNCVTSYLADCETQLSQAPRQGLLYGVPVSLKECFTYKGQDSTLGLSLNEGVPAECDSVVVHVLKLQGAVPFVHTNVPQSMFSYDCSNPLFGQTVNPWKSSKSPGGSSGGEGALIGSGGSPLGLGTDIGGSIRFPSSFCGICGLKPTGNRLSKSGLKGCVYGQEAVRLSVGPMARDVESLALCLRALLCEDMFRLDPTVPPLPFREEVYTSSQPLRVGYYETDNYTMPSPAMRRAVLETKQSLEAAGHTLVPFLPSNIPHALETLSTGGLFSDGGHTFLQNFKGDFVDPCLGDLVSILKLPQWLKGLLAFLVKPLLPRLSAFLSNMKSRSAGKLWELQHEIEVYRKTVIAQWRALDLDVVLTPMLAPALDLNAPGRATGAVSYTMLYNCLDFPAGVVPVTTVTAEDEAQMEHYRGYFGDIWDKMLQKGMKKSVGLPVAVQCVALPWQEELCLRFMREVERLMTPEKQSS
Method: biochemical
Test settings: human FAAH; read-out: hFAAH IC50
Label 1 (yes) when IC50 is strictly below 9 nM; at or above that, label 0 (no).

These recorded examples may help you get a feel for the data.
Ask: Hello, is IC50 of the following compound strictly smaller than 9 nM? Cc1cc(C(=O)NC2CCC(=Cc3cccc(Oc4ccc(C(F)(F)F)cn4)c3)CC2)cnc1N (single isomer, unassigned; (+)) [Example 20.A-5]
Reply: 0 (no)

Ask: Hello, is IC50 of the following compound strictly smaller than 9 nM? O=C(NC1CCC(=Cc2cccc(Oc3ccc(C(F)(F)F)cn3)c2)CC1)c1ccc(C2CC2)nc1 (centres unmarked)
Reply: 0 (no)

Ask: Hello, is IC50 of the following compound strictly smaller than 9 nM? CC(CO)Nc1ccc(C(=O)NC2CCC(=Cc3cccc(Oc4ccc(C(F)(F)F)cn4)c3)CC2)cn1 (centres unmarked)
Reply: 0 (no)

Ask: Hello, is IC50 of the following compound strictly smaller than 9 nM? Nc1ccc(C(=O)NC2CCC(=Cc3cccc(Oc4ccc(C(F)(F)F)c(Cl)n4)c3)CC2)cn1 (centres unmarked)
Reply: 1 (yes)

Ask: Hello, is IC50 of the following compound strictly smaller than 9 nM? O=C(NC1CCC(=Cc2cccc(Oc3ccc(C(F)(F)F)cn3)c2)CC1)c1ccccc1 (centres unmarked)
Reply: 0 (no)

Ask: Hello, is IC50 of the following compound strictly smaller than 9 nM? CCOc1ccc(C(=O)NC2CCC(=Cc3cccc(Oc4ccc(C(F)(F)F)cn4)c3)CC2)cn1 (centres unmarked)
Reply: 0 (no)

---
Ask: Hello, is IC50 of the following compound strictly smaller than 9 nM? N#Cc1ccc(C(=O)NC2CCC(=Cc3cccc(Oc4ccc(C(F)(F)F)cn4)c3)CC2)cn1 (centres unmarked)
Reply: 0 (no)

----------
System: human Fatty Acid Amide Hydrolase (FAAH) (Homo sapiens (Human), UniProt O00519)
Method: biochemical
Test settings: read-out: hFAAH IC50
The entries below come with measured IC50 values attached.

Previously resolved entries follow.
Form: compound = Nc1ncc(C(=O)NC2CCC(=Cc3cccc(Oc4ccc(C(F)(F)F)cn4)c3)CC2)cn1 (single isomer, unassigned; (+)) [Example 20.A-9] ; IC50 = 40 nM

Form: compound = O=C(NC1CCC(=Cc2cccc(Oc3ccc(C(F)(F)F)cn3)c2)CC1)c1cccnn1 (single isomer, unassigned; (-)) [Example 20.A-16] ; IC50 = 4 nM

Form: compound = O=C(NC1CCC(=Cc2cccc(Oc3ccc(C(F)(F)F)cn3)c2)CC1)c1cnc2[nH]ccc2c1 [Example 2.D-5] ; IC50 = 2 nM

Form: compound = O=C(NC1CCC(=Cc2cccc(Oc3ccc(C(F)(F)F)cn3)c2)CC1)c1ccc(-c2nnn[nH]2)nc1 (stereo not drawn) [Example 11.1] ; IC50 = 12 nM

Form: compound = O=C(NC1CCC(=Cc2cccc(Oc3ccc(C(F)(F)F)cn3)c2)CC1)c1cncnc1 (single isomer, unassigned; (-)) [Example 20.A-20] ; IC50 = 0.8 nM

---
Form: compound = O=C(NC1CCC(=Cc2cccc(Oc3ccc(C(F)(F)F)cn3)c2)CC1)c1cccnn1 (single isomer, unassigned; (+)) [Example 20.A-15] ; IC50 = 431 nM

Form: compound = O=C(NC1CCC(=Cc2cccc(Oc3ccc(C(F)(F)F)cn3)c2)CC1)c1cccnn1 (stereo not drawn) [Example 2.A-11] ; IC50 = 11 nM

Form: compound = Nc1ccc(C(=O)NC2CCC(=Cc3cccc(Oc4ccc(C(F)(F)F)cn4)c3)CC2)cn1 (single isomer, unassigned; (-)) [Example 20.A-4] ; IC50 = 1 nM

Form: compound = Cc1nc(Oc2cccc(C=C3CCC(NC(=O)c4ccc(N)nc4)CC3)c2)ccc1C(F)(F)F (stereo not drawn) [Example 2.E-17] ; IC50 = 3 nM

Form: compound = CNc1ccc(C(=O)NC2CCC(=Cc3cccc(Oc4ccc(C(F)(F)F)cn4)c3)CC2)cn1 (stereo not drawn) [Example 5.A-1] ; IC50 = 4 nM

Form: compound = Nc1ncc(C(=O)NC2CCC(=Cc3cccc(Oc4ccc(C(F)(F)F)cn4)c3)CC2)cn1 (stereo not drawn) [Example 2.C-6] ; IC50 = 1 nM

Form: compound = O=C(NC1CCC(=Cc2cccc(Oc3ccc(C(F)(F)F)cn3)c2)CC1)c1cncnc1 (stereo not drawn) [Example 2.A-12] ; IC50 = 3 nM

Form: compound = CN(C)c1ccc(C(=O)NC2CCC(=Cc3cccc(Oc4ccc(C(F)(F)F)cn4)c3)CC2)cn1 (stereo not drawn) [Example 5.1] ; IC50 = 7 nM

Form: compound = CN(C)c1ccc(C(=O)NC2CCC(=Cc3cccc(Oc4ccc(C(F)(F)F)cn4)c3)CC2)cn1 (stereo not drawn) [Example 2.A-24] ; IC50 = 9 nM

Form: compound = Nc1ccc(C(=O)NC2CCC(=Cc3cccc(Oc4ccc(C(F)(F)F)cn4)c3)CC2)cn1 (single isomer, unassigned; (+)) [Example 20.A-3] ; IC50 = 361 nM

Form: compound = Cc1cncc(C(=O)NC2CCC(=Cc3cccc(Oc4ccc(C(F)(F)F)cn4)c3)CC2)c1 (stereo not drawn) [Example 2.A-30] ; IC50 = 5 nM

----------
System: human Fatty Acid Amide Hydrolase (FAAH) (Homo sapiens (Human), UniProt O00519)
Method: biochemical
Test settings: hFAAH IC50
Structures can show the parent of a compound that is named as a salt.
The entries below come with measured IC50 values attached.
Param answer (str): number followed by unit.

Form: compound = O=C(Nc1cccnc1)C1CCC(=Cc2cccc(Oc3ccc(C(F)(F)F)cn3)c2)CC1 (stereo not drawn) [Example 1.2, hydrochloride] ; IC50 = 17 nM

Form: compound = O=C(NC1CCC(=Cc2cccc(Oc3ccc(C(F)(F)F)cn3)c2)CC1)c1cncc(F)c1 (stereo not drawn) [Example 2.A-15] ; IC50 = 5 nM

Form: compound = Nc1cc(C(=O)NC2CCC(=Cc3cccc(Oc4ccc(C(F)(F)F)cn4)c3)CC2)cnc1Cl (stereo not drawn) [Example 10.1] ; IC50 = 1 nM

----------
The entries below come with measured IC50 values attached.
System: human Fatty Acid Amide Hydrolase (FAAH) (Homo sapiens (Human))
Method: biochemical
Test settings: human FAAH; read-out: hFAAH IC50
Record the value in nM, omitting the unit from your answer.

Form: molecule = Cc1ccc(C(=O)NC2CCC(=Cc3cccc(Oc4ccc(C(F)(F)F)cn4)c3)CC2)c(C)n1 (stereo not shown) ; IC50 = 57

Form: molecule = O=C(NC1CCC(=Cc2cccc(Oc3ccc(C(F)(F)F)cn3)c2)CC1)c1cn[nH]n1 (stereo not shown) ; IC50 = 6

Form: molecule = N#Cc1nc(Oc2cccc(C=C3CCC(NC(=O)c4ccc(N)nc4)CC3)c2)ccc1C(F)(F)F (stereo not shown) ; IC50 = 6

Form: molecule = O=C(NC1CCC(=Cc2cccc(Oc3ccc(C(F)(F)F)cn3)c2)CC1)c1cn[nH]c1 (single isomer, unassigned; (-)) [Example 20.A-12] ; IC50 = 1.7

Form: molecule = O=C(NC1CCC(=Cc2cccc(Oc3ccc(C(F)(F)F)cn3)c2)CC1)c1c[nH]c2ccccc12 (single isomer, unassigned; (-)) ; IC50 = 4

Form: molecule = O=C(NC1CCC(=Cc2cccc(Oc3ccc(C(F)(F)F)cn3)c2)CC1)c1ccc(-c2cn[nH]c2)nc1 (stereo not shown) ; IC50 = 2

For the next question, use this molecule.
Form: molecule = O=C(NC1CCC(=Cc2cccc(Oc3ccc(C(F)(F)F)cn3)c2)CC1)c1cc[nH]n1 (stereo not shown) ; IC50 = 10

----------
The entries below come with measured log10 of IC50 values attached.
System: human Fatty Acid Amide Hydrolase (FAAH) (Homo sapiens (Human))
Method: biochemical
Test settings: human FAAH; read-out: hFAAH IC50
Log scale reminder: IC50 in nM, then log10 taken.

Entry Cc1nc(Oc2cccc(C=C3CCC(NC(=O)c4cnc(N)nc4)CC3)c2)ccc1Cl (single isomer, unassigned; (+)) [Example 20.A-21] under human Fatty Acid Amide Hydrolase (FAAH) (Homo sapiens (Human)) had log10 of IC50 of 0.95

---
Entry O=C(NC1CCC(=Cc2cccc(Oc3ccc(C(F)(F)F)cn3)c2)CC1)c1cnccn1 (stereo not shown) [Example 2.A-5] under human Fatty Acid Amide Hydrolase (FAAH) (Homo sapiens (Human)) had log10 of IC50 of 0.95

Entry Cc1n[nH]c(C)c1-c1ccc(C(=O)NC2CCC(=Cc3cccc(Oc4ccc(C(F)(F)F)cn4)c3)CC2)cn1 (stereo not shown) [Example 2.B-11] under human Fatty Acid Amide Hydrolase (FAAH) (Homo sapiens (Human)) had log10 of IC50 of 1.23

Entry Cc1nc(Oc2cccc(C=C3CCC(NC(=O)c4cnc(N)nc4)CC3)c2)ccc1Cl (stereo not shown) [Example 2.E-27] under human Fatty Acid Amide Hydrolase (FAAH) (Homo sapiens (Human)) had log10 of IC50 of 0.00

Entry O=C(NC1CCC(=Cc2cccc(Oc3ccc(C(F)(F)F)cn3)c2)CC1)c1ccc(Cl)nc1 (stereo not shown) [Example 2.A-22] under human Fatty Acid Amide Hydrolase (FAAH) (Homo sapiens (Human)) had log10 of IC50 of 0.70

Entry Nc1ncccc1C(=O)NC1CCC(=Cc2cccc(Oc3ccc(C(F)(F)F)cn3)c2)CC1 (stereo not shown) [Example 2.C-5] under human Fatty Acid Amide Hydrolase (FAAH) (Homo sapiens (Human)) had log10 of IC50 of 1.57

Entry O=C(NC1CCC(=Cc2cccc(Oc3ccc(C(F)(F)F)cn3)c2)CC1)c1cncc(-n2cccn2)c1 (stereo not shown) [Example 2.B-7] under human Fatty Acid Amide Hydrolase (FAAH) (Homo sapiens (Human)) had log10 of IC50 of 0.78
